Test system: CP256
procedure.details: qHTS profiling for inhibitors of Plasmodium falciparum proliferation (AID 504749); also: nearly all actives have a fitted effect of over 60% in size; also: potency is read from the fitted curve at half-maximal effect
recorded.conditions: P. falciparum in erythrocytes, SYBR Green DNA, 72 h; series mostly up to 28.7 µM
Records with an inconclusive call do not appear. Calls of active or inactive are those of the source. Calls follow the shape of the dose curve; as a rule, active = well fitted inhibition curve with a large enough effect; inconclusive = small, poorly fitted or top-dose-only effect; inactive = flat fitted curve, though single readings scatter.
measurement.kind: Potency

Answered examples (4):
[O-][n+]1ccccc1SSc1cccc[n+]1[O-]
2 µM (active)
COc1ccc(-c2cc(=S)ss2)cc1
inactive
CC1(C)S[C@@H]2[C@H](NC(=O)[C@H](NC(=O)N3CCN(S(C)(=O)=O)C3=O)c3ccccc3)C(=O)N2[C@H]1C(=O)O
inactive
C=CC(N)CCC(=O)O (stereo not given)
inactive

Note: attention shifts to another entry.
Q: Consider the compound "O=C(O)c1cc(O)c(O)c(O)c1" . State its measured Potency.
Ans: inactive

* * *

System: MCC-13
procedure.details: qHTS assay to identify novel small-molecules to repurpose for Merkel cell carcinoma treatment (AID 1296009); also: nearly all actives have a fitted effect of over 60% in size
recorded.conditions: MCC and control cell lines, CellTiter-Glo viability, 72 h; series mostly up to 46 µM
Inconclusive results are not listed. Calls of active or inactive are those of the source. The call rests on the fitted dose curve; in most records, active means well fitted inhibition curve with a large enough effect; inconclusive means small, poorly fitted or top-dose-only effect; inactive means flat fitted curve, though single readings scatter.
In this exercise, the only acceptable responses are true = active, false = inactive

Sample answers from the record:
COC(=O)Nc1nc2ccc(C(=O)C3CC3)cc2[nH]1
true
C=CCCCCCCCCC(=O)O
false
CN(C)CCn1nnnc1SCC1=C(C(=O)O)N2C(=O)[C@@H](NC(=O)Cc3csc(N)n3)[C@H]2SC1
false
CCCCCCCCCCCCCCCC(=O)OC(C)C
false
COc1cc(NC(C)CCCN)c2ncccc2c1 (configuration not stated)
true

Q: Just curious, what result did CC(=O)SCC(CC(=O)c1ccc(C)cc1)C(=O)O (configuration not stated) get here?
Ans: false

Q: Just curious, what result did "Cc1ccc(O)c(-n2nc3ccccc3n2)c1" get here?
Ans: false

Q: Just curious, what result did "CN1CCN(c2cc3c(nn2)Oc2ccccc2N3C)CC1" get here?
Ans: false

Q: Just curious, what result did "O=C(O)Cc1ccc2c(c1)C(=O)c1ccccc1CO2" get here?
Ans: false

Q: Just curious, what result did CN(C)[C@@H]1C(=O)C(C(=O)NCN2CCCC2)=C(O)[C@@]2(O)C(=O)C3=C(O)c4c(O)cccc4[C@@](C)(O)C3C[C@@H]12 (some centres not stated) get here?
Ans: false

Q: Just curious, what result did "N=C1N=C(N)c2cc3ccccc3cc21" get here?
Ans: true

Q: Just curious, what result did "COC(=O)c1nc(Cl)c(Cl)nc1N" get here?
Ans: true

* * *

System: CP191
procedure.details: qHTS profiling for inhibitors of Plasmodium falciparum proliferation (AID 504749); also: nearly all actives have a fitted effect of over 60% in size
recorded.conditions: P. falciparum in erythrocytes, SYBR Green DNA, 72 h; series mostly up to 28.7 µM
Experimental: NIH National Institute of Allergy and Infectious Diseases [NIAID] NIH Chemical Genomics Center [NCGC] […] Because mature erythrocytes lack DNA, only Plasmodium-derived DNA is detected. NCGC Assay Protocol Summary: The SYBR Green viability assay was adapted from a method described previously (Plouffe et al., 2008). […] The following morning, fluorescence intensity at 485(14) nm excitation and 535(25) nm emission wavelengths was measured on an EnVision (Perkin Elmer) plate reader. […]
Results filed as inconclusive are left out. Activity calls are given as the source filed them. The call rests on the fitted dose curve; in most records, active means well fitted inhibition curve with a large enough effect; inconclusive means small, poorly fitted or top-dose-only effect; inactive means flat fitted curve, though single readings scatter.
In this exercise, the only acceptable responses are active, inactive

COc1cc(/C=C/C(=O)N2CCN(CC(=O)N3CCCC3)CC2)cc(OC)c1OC
inactive

Q: Just curious, what result did "c1ccc2sc(SN3CCOCC3)nc2c1" get here?
Ans: inactive

Q: Just curious, what result did "C#C[C@]1(O)CC[C@H]2[C@@H]3CCc4cc(O)ccc4[C@H]3CC[C@@]21C" get here?
Ans: inactive

Q: Just curious, what result did "Nc1ccc(C(=O)O)c(O)c1" get here?
Ans: inactive

Q: Just curious, what result did "COc1ccc(-c2cc(=S)ss2)cc1" get here?
Ans: inactive
